# measurement-target: T1, huROR1-His (human ROR1 ECD AA30-406 with C-terminal His tag, made in house) (human, UniProt Q01973 30-406)
# T1 construct: range 30-406; Expressed in HEK293; also called antigen protein huROR1-His; not shown: C-terminal His tag
# T1 sequence (Q01973 30-406 limits assumed): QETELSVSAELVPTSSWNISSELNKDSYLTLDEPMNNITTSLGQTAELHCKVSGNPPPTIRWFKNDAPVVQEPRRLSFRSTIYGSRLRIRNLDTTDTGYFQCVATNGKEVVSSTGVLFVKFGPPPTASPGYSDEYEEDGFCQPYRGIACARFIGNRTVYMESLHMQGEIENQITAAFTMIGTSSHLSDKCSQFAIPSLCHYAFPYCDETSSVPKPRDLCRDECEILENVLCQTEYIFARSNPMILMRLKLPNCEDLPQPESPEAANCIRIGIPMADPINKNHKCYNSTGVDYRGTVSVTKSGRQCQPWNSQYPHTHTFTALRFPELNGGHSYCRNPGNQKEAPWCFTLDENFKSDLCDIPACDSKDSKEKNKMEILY
# assay-text: Gator (BLI) Advanced Kinetics; antibody 30 nM, huROR1-His 480-7.5 nM
metric: koff (s⁻¹)

>>> reported_value("C77 (chimeric antibody) (antibody, human IgG1, kappa, V domains shown, ExpiCHO expression) VH: EVKLVESGGGLVKPGGSLKLSCAASGFSFSNYAMSWVRQTPEKRLEWVASINSGVTTYYPDSVKGRFTVSRDNARNILYLHMTGLRSEDTAIYYCSRGYYYGGSPYWHFDVWGAGTTVTVSS VL: DIQMTQSPSSMHASLGERVTITCKASQDINNYVSWFQQKPGKSPKTLIYRANRLVDGVPSRFSGSGSGQDYSFTISSLEYEDMGIYYCLQFDEFPYTFGGGTKLEIKR")
0.000774
>>> reported_value("C38 (chimeric antibody) (antibody, human IgG1, kappa, V domains shown, ExpiCHO expression) VH: EVMLVESGGGLVRPGGSLKLSCAASGFTFSSYAMSWVRQTPDKRLEWVASINRDVTTYYPDSVKGRFTISRDNARNILYLQMSSLRSEDTAMYYCARDYYYGSSLYYGMDYWGQGTSVTVSS VL: DIQMTQSPSSMHASLGERVTITCKASQDINNYVSWFQQKPGKSPKTLIYRANRLVDGVPSRFSGSGSGQDYSFTISSLEYEDMGIYYCLQFDEFPYTFGGGTKLEIKR")
0.000422
